Every entry's value here was drawn from patent US7026443.

- TESTED_SYSTEM: HLA-B*5401 (human)
- ASSAY_DETAILS: competition with 125I-labelled standard peptide for purified HLA, gel filtration
binding affinity ratio (IC50 of standard peptide / IC50 of test peptide) overview
Give your answer as a number; write no unit.

These recorded examples may help you get a feel for the data.
> print(dat)
                                     binder  reported.value
1  GPKATLQDI (modifications not checked) [HPV18 E7 peptide … (position 3, 9 amino acids)]          0.0002
2  KPLNPAEKL (modifications not checked) [HPV18 E6 peptide … (position 110, 9 amino acids)]          0.0002
3  EPQNEIPVDL (modifications not checked) [HPV18 E7 peptide … (position 16, 10 amino acids)]          0.0001
4  NPAEKLRHL (modifications not checked) [HPV18 E6 peptide … (position 113, 9 amino acids)]          0.0002

binding affinity ratio (IC50 of standard peptide / IC50 of test peptide) recorded for this binder, GPKATLQDIV (modifications not checked) [HPV18 E7 peptide … (position 3, 10 amino acids)] , is 0.0001

Record IPHAACHKCI (modifications not checked) [HPV18 E6 peptide … (position 60, 10 amino acids)] . Reported binding affinity ratio (IC50 of standard peptide / IC50 of test peptide): 0.0005

The measured binding affinity ratio (IC50 of standard peptide / IC50 of test peptide) associated with DPTRRPYKL (modifications not checked) [HPV18 E6 peptide … (position 6, 9 amino acids)] reads 0.0002

# binding affinity ratio (IC50 of standard peptide / IC50 of test peptide) of EPQRHTMLCM (modifications not checked) [HPV18 E7 peptide … (position 55, 10 amino acids)] = 0.0001
